systemUnderTest: Sodium-dependent serotonin transporter (Rattus norvegicus) (UniProt P31652)
Sequence (P31652 whole entry): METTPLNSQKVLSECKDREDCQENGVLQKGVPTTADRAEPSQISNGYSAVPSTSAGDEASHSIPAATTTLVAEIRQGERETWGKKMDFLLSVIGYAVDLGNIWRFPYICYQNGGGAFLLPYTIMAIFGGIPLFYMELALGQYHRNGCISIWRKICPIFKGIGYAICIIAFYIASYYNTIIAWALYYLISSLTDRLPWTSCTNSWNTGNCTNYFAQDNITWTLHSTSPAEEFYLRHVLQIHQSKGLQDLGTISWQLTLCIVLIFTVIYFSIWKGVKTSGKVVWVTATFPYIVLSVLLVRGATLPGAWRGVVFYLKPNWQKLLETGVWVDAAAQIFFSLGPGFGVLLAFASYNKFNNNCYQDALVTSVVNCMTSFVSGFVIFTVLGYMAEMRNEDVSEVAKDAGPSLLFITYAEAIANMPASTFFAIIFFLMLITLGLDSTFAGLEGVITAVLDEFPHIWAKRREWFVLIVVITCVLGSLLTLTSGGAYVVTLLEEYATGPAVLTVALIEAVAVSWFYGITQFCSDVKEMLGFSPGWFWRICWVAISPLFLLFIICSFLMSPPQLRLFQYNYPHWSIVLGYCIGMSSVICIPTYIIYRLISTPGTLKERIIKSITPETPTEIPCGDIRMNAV
method: Specific binding of [18F]AFA in rat thalamus after nisoxetine treatment; n=3
Type: functional, tissue-based
studyConditions: tested as the 18F-labelled form
readoutLabel: Specific binding (%ID/g)
Write down the numeric answer in %ID/g and omit the unit.

Worked set:
# smilesRepresentation, measurementUnit, Specific binding
records = [
    ("CN(C)Cc1ccccc1Sc1ccc(F)cc1N", "%ID/g", 3.53),
    ("CN(C)Cc1ccccc1Sc1ccc(CCCF)cc1N", "%ID/g", 0.88),
    ("CN(C)Cc1ccccc1Sc1ccc(CF)cc1N", "%ID/g", 4.71),
]

Here's the next entry for you.
-- ask What value of Specific binding has been reported for the following molecule? CN(C)Cc1ccccc1Sc1ccc(CCF)cc1N
-- reply 3.56
